EXPERIMENTAL TARGET: HLA-A*02:06
ASSAY NAME: IEDB peptide-MHC binding, purified MHC/competitive/radioactivity; bounds were set here for any values at or beyond the usual limits of such assays
CONDITION DESCRIPTION: source organism: Vaccinia virus WR
pIC50: −log10 of the molar value.
ENDPOINT LABEL: pIC50

>>> quantitative_readout("IVPDIKLDA")
5.46
>>> quantitative_readout("SAFNDDGIYI")
7.39
>>> quantitative_readout("RTMPNESRV")
6.81
>>> quantitative_readout("MIHKTYIDV")
6.90
>>> quantitative_readout("TILDDNLYKV")
7.31
>>> quantitative_readout("NIKISLNEIL")
6.25
>>> quantitative_readout("FLPQIGGEA")
7.02
>>> quantitative_readout("QVKELGIAI")
5.43
>>> quantitative_readout("AVIIMAINV")
7.19
>>> quantitative_readout("YIESKAKQL")
5.52
>>> quantitative_readout("IICEDAMYYA")
8.06
>>> quantitative_readout("TITTFIPISA")
5.32
>>> quantitative_readout("VQFSILNNPV")
6.73
>>> quantitative_readout("LISLINSLV")
7.14
>>> quantitative_readout("IVPEFAKQYV")
7.82
>>> quantitative_readout("CLLTDTIESA")
7.04
>>> quantitative_readout("LTTVFIKYV")
6.89
>>> quantitative_readout("VITYCLVTHM")
5.58
>>> quantitative_readout("LITLILSNKL")
6.20
>>> quantitative_readout("KTANNYETI")
6.48
>>> quantitative_readout("FMEEEIKAEM")
6.06
>>> quantitative_readout("GIKGLDERFV")
6.03
>>> quantitative_readout("IALCKVTVPT")
6.19
>>> quantitative_readout("YVSPTEMVDV")
8.28
>>> quantitative_readout("SLVITYCLV")
6.57
>>> quantitative_readout("KLLYAAEMV")
7.74
>>> quantitative_readout("VILKDPRIA")
6.50
>>> quantitative_readout("LAISAVYFKA")
6.18
>>> quantitative_readout("YLLGDSDSVA")
6.87
>>> quantitative_readout("VLALYSPPLI")
6.06
>>> quantitative_readout("SLVITYCLVT")
6.08
>>> quantitative_readout("LVMDKNHAI")
6.99
>>> quantitative_readout("YIAGLKIEEI")
6.87
>>> quantitative_readout("YVGDTSMMVI")
6.49
>>> quantitative_readout("FTFGDTALYV")
8.46
>>> quantitative_readout("YLGPRVCWL")
7.64
>>> quantitative_readout("SAVFKDSFL")
5.94
>>> quantitative_readout("DVSLSAYII")
5.36
>>> quantitative_readout("YIALCKVTV")
7.72
>>> quantitative_readout("AAVIIMAINV")
6.35
>>> quantitative_readout("MVDVSMMSM")
7.00
>>> quantitative_readout("FTNSQIFNI")
8.32
>>> quantitative_readout("SVMNFIPII")
8.55
>>> quantitative_readout("LISFFGLFDI")
6.77
